# Test system: 565232-114-T-J1-PDC complex spheroid viability;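 also: spheroids exposed to compounds for 7 days before readout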
# METHOD DESCRIPTION: Anticancer human tumor 565232-114-T-J1-PDC patient-derived bladder carcinoma cell line growth inhibition [CLK]
# CONDITION SUMMARY: curve of first compound; second compound 0.0316 µM
pIC50: −log10 of the molar value.
Reported pIC50 by item:
RECORDED METRIC: pIC50

COMPOUND	OPERATOR	NUMBER
C#Cc1c(F)ccc2cc(O)cc(-c3ncc4c(N5CC6CCC(C5)N6)nc(OCC56CCCN5CC(F)C6)nc4c3F)c12 (stereo not given) + CN1CCN(c2cc(C(=O)Nc3cc4cc(-c5cnn(C)c5)ccc4cn3)ccn2)CC1	<	5.00
C=CC(=O)N1CCN(c2nc(=O)n(-c3c(C)ccnc3C(C)C)c3nc(-c4c(O)cccc4F)c(F)cc23)C(C)C1 (stereo not given) + CNC(=O)c1ccc(Nc2nc(OC3CCCC3)c3c(-c4ccc5nc(C)oc5c4)c[nH]c3n2)c(OC)c1	<	5.00
CC1COCCN1c1cc(C2(S(C)(=N)=O)CC2)nc(-c2ccnc3[nH]ccc23)n1 (stereo not given) + CN1CCN(c2cc(C(=O)Nc3cc4cc(-c5cnn(C)c5)ccc4cn3)ccn2)CC1	<	5.00
CC1(C)CCC(CN2CCN(c3ccc(C(=O)NS(=O)(=O)c4ccc(NCC5CCOCC5)c([N+](=O)[O-])c4)c(Oc4cnc5[nH]ccc5c4)c3)CC2)=C(c2ccc(Cl)cc2)C1 + CN1CCN(c2cc(C(=O)Nc3cc4cc(-c5cnn(C)c5)ccc4cn3)ccn2)CC1	=	5.04
Nc1ccccc1NC(=O)c1ccc(CNC(=O)OCc2cccnc2)cc1 + CNC(=O)c1ccc(Nc2nc(OC3CCCC3)c3c(-c4ccc5nc(C)oc5c4)c[nH]c3n2)c(OC)c1	=	5.53
